assay.comment: RP, Advanced Chromatography Technologies ACE C18, 50 × 2.1 mm, 3 µm; A: water + 10 mM ammonium acetate; B: acetonitrile; gradient (min/%B) 0/5 1/5 21/95
reported.conditions: stereoisomer not certain
Response field class: enum, chosen by comparing LC retention time against low-valued = under 6 min, mid-valued = from 6 min up to 10 min, high-valued = 10 min and over

- CC(C)(C)c1cc(-n2nc3ccc(Cl)cc3n2)c(O)c(C(C)(C)C)c1: high-valued
- c1ccc2sc(SNC3CCCCC3)nc2c1 [N-cyclohexyl-2-benzothiazolesulphenamide]: high-valued
- Cc1ccc(O)c(-n2nc3ccccc3n2)c1: high-valued
- Cc1ccc2n[nH]nc2c1: low-valued
- CC(C)COC(=O)c1ccccc1C(=O)OCC(C)C [Diisobutyl phthalate]: high-valued

Sort c1ccc2n[nH]nc2c1 into one of the categories.
low-valued

Sort CSc1nc2ccccc2s1 into one of the categories.
mid-valued

Sort Nc1c(Cl)cc([N+](=O)[O-])cc1[N+](=O)[O-] into one of the categories.
mid-valued

====

assay.comment: RP, Advanced Chromatography Technologies ACE C18, 50 × 2.1 mm, 3 µm; A: water + 10 mM ammonium acetate; B: acetonitrile; gradient (min/%B) 0/5 1/5 21/95
reported.conditions: stereoisomer not certain
parameter: LC retention time (min)
Your answer should be a plain number; it is taken to be in min.

• CC(C)(c1ccccc1)c1cc(-n2nc3ccccc3n2)c(O)c(C(C)(C)c2ccccc2)c1 = 19.4
• CCC(C)(C)c1cc(-n2nc3ccccc3n2)c(O)c(C(C)(C)CC)c1 [2-(2H-benzotriazol-2-yl)-4-6-di-tert-pentylphenol] = 20.8
• Nc1c(Cl)cc([N+](=O)[O-])cc1Cl [2,6-dichloro-4-nitroaniline] = 9.41
• Cc1cc2n[nH]nc2cc1C [5-6-Dimethyl-2H-benzotriazole] = 5.73
• Nc1ccc([N+](=O)[O-])cc1[N+](=O)[O-] [2-4-dinitroaniline] = 7.02

Given Nc1c(Br)cc([N+](=O)[O-])cc1[N+](=O)[O-] [2-bromo-4,6-dinitroaniline] , state its recorded LC retention time.
8.73

Given c1ccc2sc(SSc3nc4ccccc4s3)nc2c1 [2-2'-dithiobisbenzothiazole] , state its recorded LC retention time.
14.6

Given c1ccc2scnc2c1 [Benzothiazole] , state its recorded LC retention time.
5.38
